# assay details: in vivo
# conditions used: male, BALB/c, mouse, in vivo, iv, 5 mg/kg, t1/2
endpoint: half-life (h)
# output: bare number, implied unit h

Input line: Give half-life for CC(=O)O[C@H]1C(=O)[C@@]2(C)[C@H]([C@H](OC(=O)c3ccccc3)[C@]3(O)C[C@H](OC(=O)[C@H](O)[C@@H](NC(=O)c4ccccc4)c4ccccc4)C(C)=C1C3(C)C)[C@]1(OC(C)=O)CO[C@@H]1C[C@@H]2O [Paclitaxel, reference compound]
Output line: 1.33

* * *

# assay details: Plasma pharmacokinetics after single I.P./I.V. dose in male Sprague-Dawley rats (LC-MS/MS)
# conditions used: male, Sprague-Dawley, rat, plasma, iv, 1 mg/kg, CL, SD rats; doxorubicin I.V. 1.00 mg/kg alone
endpoint: clearance (mL/min/kg)
# output: bare number, implied unit mL/min/kg

Input line: Give clearance for COc1cccc2c1C(=O)c1c(O)c3c(c(O)c1C2=O)C[C@@](O)(C(=O)CO)C[C@@H]3O[C@H]1C[C@H](N)[C@H](O)[C@H](C)O1 [Doxorubicin, reference compound]
Output line: 151
